Target: human cloned 5-HT6 receptors (Homo sapiens, UniProt P50406)
Sequence (P50406 whole entry): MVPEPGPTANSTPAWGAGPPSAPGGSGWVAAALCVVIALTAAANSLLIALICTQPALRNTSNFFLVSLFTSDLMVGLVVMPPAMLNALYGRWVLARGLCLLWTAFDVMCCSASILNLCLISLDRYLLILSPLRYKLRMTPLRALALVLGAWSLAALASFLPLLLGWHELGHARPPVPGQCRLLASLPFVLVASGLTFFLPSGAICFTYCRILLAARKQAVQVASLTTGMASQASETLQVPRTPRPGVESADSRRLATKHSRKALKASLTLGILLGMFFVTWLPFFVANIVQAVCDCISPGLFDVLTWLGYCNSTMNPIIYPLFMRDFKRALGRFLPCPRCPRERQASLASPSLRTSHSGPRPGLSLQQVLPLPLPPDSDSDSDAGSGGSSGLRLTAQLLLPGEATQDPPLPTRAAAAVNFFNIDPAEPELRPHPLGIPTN
Structures can show the parent of a compound that is named as a salt.
observation-type: Ki

### Prompt Please state recorded Ki (tested on human cloned 5-HT6 receptors (Homo sapiens, UniProt P50406)) of O=S(=O)(c1cccc(Cl)c1)n1ccc2c(N3CCNCC3)ccnc21 [Example E1, hydrochloride]
### Response < 10 nM
